Property: MIC; scope: individual compounds
Tested on: Staphylococcus aureus
assay_summary: Antibacterial activity against methicillin-resistant Staphylococcus aureus ATCC 43300 after 20 to 24 hrs by CLSI method
Type: functional
observation_type: MIC (µg/mL)

INSERT INTO assay_data (smiles, unit_info, inequality_sign, value_reported) VALUES
  ('CCCCCCCCCCCCOCc1cn([C@@H]2O[C@H](CO)[C@@H](O)[C@H](O)[C@H]2O)nn1', 'µg/mL', '=', 256),
  ('CCCCCCCCCCCCCCOCc1cn([C@@H]2O[C@H](CO)[C@@H](O)[C@H](O)[C@H]2O)nn1', 'µg/mL', '=', 256),
  ('CCCCCCCCCCCCCCCCO', 'µg/mL', '>', 256),
  ('CCCCCCCCCCO', 'µg/mL', '>', 256),
  ('CCCCCCCCCCCCOCc1cn([C@@H]2O[C@H](CO)[C@@H](O)[C@H](O)[C@@H]2O)nn1', 'µg/mL', '=', 256),
  ('CCCCCCCCCCCCCCCCOCc1cn([C@@H]2O[C@H](CO)[C@H](O)[C@H](O)[C@H]2O)nn1', 'µg/mL', '=', 256),
  ('CCCCCCCCCCCCCCOCc1cn([C@@H]2O[C@H](CO)[C@H](O)[C@H](O)[C@H]2O)nn1', 'µg/mL', '=', 256),
  ('CCCCCCCCCCCCCCCCCCO', 'µg/mL', '>', 256),
  ('Cc1onc(-c2ccccc2)c1C(=O)N[C@@H]1C(=O)N2[C@@H]1SC(C)(C)[C@@H]2C(=O)O', 'µg/mL', '=', 64),
  ('CCCCCCCCO', 'µg/mL', '>', 256),
  ('CCCCCCCCCCCCCCO', 'µg/mL', '>', 256),
  ('CCCCCCCCCCCCCCO[C@@H]1O[C@H](CO)[C@@H](O)[C@H](O)[C@H]1O', 'µg/mL', '>', 256),
  ('CCCCCCCCCCCCCCCCO[C@@H]1O[C@H](CO)[C@@H](O)[C@H](O)[C@H]1O', 'µg/mL', '>', 256),
  ('CCCCCCO', 'µg/mL', '>', 256),
  ('CCCCCCCCCCCCO', 'µg/mL', '>', 256);
